Measured GI50 by item
Molecular target: EGFR (A767_dupASV) expressing Ba/F3 stable cell line (Homo sapiens, UniProt P00533, DUP767-769, cells depend on it)
Sequence (P00533 with tags, fused parts or gaps DUP767-769): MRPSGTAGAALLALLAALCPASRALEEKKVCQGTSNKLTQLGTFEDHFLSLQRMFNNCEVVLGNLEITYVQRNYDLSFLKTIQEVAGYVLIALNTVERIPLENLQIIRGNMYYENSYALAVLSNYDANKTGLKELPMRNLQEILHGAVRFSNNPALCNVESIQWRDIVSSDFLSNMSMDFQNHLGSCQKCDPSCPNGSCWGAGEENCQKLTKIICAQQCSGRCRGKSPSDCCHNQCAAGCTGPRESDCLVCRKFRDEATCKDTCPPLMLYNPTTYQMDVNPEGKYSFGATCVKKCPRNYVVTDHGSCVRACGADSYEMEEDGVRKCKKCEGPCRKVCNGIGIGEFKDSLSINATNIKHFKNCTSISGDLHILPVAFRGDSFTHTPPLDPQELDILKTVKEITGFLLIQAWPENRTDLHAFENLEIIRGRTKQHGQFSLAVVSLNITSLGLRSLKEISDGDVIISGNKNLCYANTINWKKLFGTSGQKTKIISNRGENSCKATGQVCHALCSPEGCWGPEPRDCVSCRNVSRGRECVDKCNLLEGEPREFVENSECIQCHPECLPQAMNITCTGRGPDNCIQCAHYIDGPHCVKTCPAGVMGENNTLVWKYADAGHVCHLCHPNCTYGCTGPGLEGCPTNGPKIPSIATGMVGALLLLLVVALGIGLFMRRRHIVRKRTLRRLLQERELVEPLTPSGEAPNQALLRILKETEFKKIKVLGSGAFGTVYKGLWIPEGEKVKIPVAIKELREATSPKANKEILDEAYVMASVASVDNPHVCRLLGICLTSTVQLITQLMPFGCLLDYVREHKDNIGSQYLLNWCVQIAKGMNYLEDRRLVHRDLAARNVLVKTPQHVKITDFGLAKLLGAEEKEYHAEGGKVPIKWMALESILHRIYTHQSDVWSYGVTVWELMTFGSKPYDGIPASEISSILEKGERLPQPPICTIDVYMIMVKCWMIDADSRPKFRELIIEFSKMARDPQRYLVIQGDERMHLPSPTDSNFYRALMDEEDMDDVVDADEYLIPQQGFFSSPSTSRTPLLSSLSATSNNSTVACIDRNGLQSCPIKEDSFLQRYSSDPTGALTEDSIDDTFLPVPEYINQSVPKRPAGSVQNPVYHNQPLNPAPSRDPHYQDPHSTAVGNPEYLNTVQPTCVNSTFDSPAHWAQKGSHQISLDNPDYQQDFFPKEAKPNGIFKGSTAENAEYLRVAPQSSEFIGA
Assay: Cellular proliferation (Alamar Blue) assay, EGFR A767_dupASV Ba/F3
Format: cell-based
Settings: EGFR A767_dupASV Ba/F3, 72 hr, read-out: A767 IC50
Use µM as the unit, but write only the number.

Query: Give a short answer stating reported GI50 for C=CC(=O)Nc1cccc(N2C(=O)N(c3ccccc3)Cc3cnc(Nc4ccc(N5CCC(N(C)C)CC5)nc4)nc32)c1 [Compound 112] .
Response: 0.229

Query: Give a short answer stating reported GI50 for CN(C)C/C=C/C(=O)Nc1cccc(N2C(=O)N(Cc3ccccc3)Cc3cnc(Nc4cn(C)nc4C(F)F)nc32)c1 [Compound 94] .
Response: 0.039

Query: Give a short answer stating reported GI50 for C=CC(=O)Nc1cccc(N2C(=O)N(Cc3ccccc3)Cc3cnc(Nc4cnn(C)c4)nc32)c1 [Compound 1] .
Response: 0.014

Query: Give a short answer stating reported GI50 for C[C@H](c1ccccc1)N1Cc2cnc(Nc3cnn(C)c3)nc2N(c2cccc(NC(=O)/C=C/CN(C)C)c2)C1=O (single isomer, unassigned) [Compound 133] .
Response: 1.12

Query: Give a short answer stating reported GI50 for Cc1csc(Nc2ncc3c(n2)N(C2CCCC(NC(=O)/C=C/CN(C)C)C2)C(=O)N(Cc2ccccc2)C3)n1 (stereo not shown) [Compound 29] .
Response: 2.6

Query: Give a short answer stating reported GI50 for CC#CC(=O)Nc1cccc(N2C(=O)N(c3ccccc3)Cc3cnc(Nc4cn(C)nc4Cl)nc32)c1 [Compound 125] .
Response: 0.269

Query: Give a short answer stating reported GI50 for C=CC(=O)Nc1cccc(N2C(=O)N(Cc3ccc(C)cc3C)Cc3cnc(Nc4cn(C)nc4Cl)nc32)c1 [Compound 69] .
Response: 0.333

Query: Give a short answer stating reported GI50 for CN(C)C/C=C/C(=O)Nc1cccc(N2C(=O)N(Cc3ccccc3)Cc3cnc(Nc4cnoc4)nc32)c1 [Compound 58] .
Response: 0.801

Query: Give a short answer stating reported GI50 for CN(C)C1CCN(C/C=C/C(=O)Nc2cccc(N3C(=O)N(c4ccccc4)Cc4cnc(Nc5cn(C)nc5Cl)nc43)c2)CC1 [Compound 124] .
Response: 2.76

Query: Give a short answer stating reported GI50 for CN(C)C/C=C/C(=O)NC1CCCC(N2C(=O)N(Cc3ccccc3)Cc3cnc(Nc4cnn(C)c4)nc32)C1 (stereo not shown) [Compound 31] .
Response: 3.32

Query: Give a short answer stating reported GI50 for CN(C)C/C=C/C(=O)Nc1cccc(N2C(=O)N(Cc3ccccc3)Cc3cnc(Nc4cn(CC(F)F)nc4Cl)nc32)c1 [Compound 101] .
Response: 0.1

Query: Give a short answer stating reported GI50 for C/C=C/C(=O)Nc1cccc(N2C(=O)N(c3ccccc3)Cc3cnc(Nc4cn(C)nc4Cl)nc32)c1 [Compound 120] .
Response: 0.107

Query: Give a short answer stating reported GI50 for CN(C)C/C=C/C(=O)Nc1cccc(N2C(=O)N(Cc3ccc(F)cc3F)Cc3cnc(Nc4cn(C)nc4Cl)nc32)c1 [Compound 61] .
Response: 0.058

Query: Give a short answer stating reported GI50 for C=CC(=O)Nc1cccc(N2C(=O)N(Cc3ccccc3)Cc3cnc(Nc4cn(C)nc4Cl)nc32)c1 [Compound 73] .
Response: 0.004

Query: Give a short answer stating reported GI50 for Cn1cc(Nc2ncc3c(n2)N(c2cccc(NC(=O)/C=C/CN4CCOCC4)c2)C(=O)N(c2ccccc2)C3)c(Cl)n1 [Compound 122] .
Response: 0.101

Query: Give a short answer stating reported GI50 for C=CC(=O)Nc1cccc(N2C(=O)N(Cc3ccccc3)Cc3cnc(Nc4ccc(N5CCN(C)CC5)nc4)nc32)c1 [Compound 67] .
Response: 0.041

Query: Give a short answer stating reported GI50 for CN(C)C/C=C/C(=O)Nc1cccc(N2C(=O)N(c3ccccc3)Cc3cnc(Nc4ccc(N5CCN(C)CC5)nc4)nc32)c1 [Compound 109] .
Response: 2.32

Query: Give a short answer stating reported GI50 for C=CC(=O)Nc1cccc(N2C(=O)N(c3ccccc3)Cc3cnc(Nc4cn(C)nc4F)nc32)c1 [Compound 113] .
Response: 0.004

Query: Give a short answer stating reported GI50 for CN(C)C/C=C/C(=O)Nc1cccc(N2C(=O)N(Cc3ccccc3)Cc3cnc(Nc4cn(C)nn4)nc32)c1 [Compound 26] .
Response: 3.33

Query: Give a short answer stating reported GI50 for C=CC(=O)Nc1ccc(N2C(=O)N(c3ccccc3)Cc3cnc(Nc4cn(C)nc4Cl)nc32)cc1 [Compound 131] .
Response: 0.373

Query: Give a short answer stating reported GI50 for CN(C)C/C=C/C(=O)Nc1cccc(N2C(=O)N(Cc3ccccc3)Cc3cnc(Nc4cnc(N5CCN(C)CC5)nc4)nc32)c1 [Compound 59] .
Response: 8.66

Query: Give a short answer stating reported GI50 for C=CC(=O)Nc1cccc(N2C(=O)N(Cc3ccccc3)Cc3cnc(Nc4cn(C)nc4F)nc32)c1 [Compound 71] .
Response: 0.022

Query: Give a short answer stating reported GI50 for C=CC(=O)Nc1cccc(N2C(=O)N(c3ccccc3)Cc3cnc(Nc4cnn(C5CCC(O)CC5)c4)nc32)c1 (stereo not shown) [Compound 108] .
Response: 0.912

Query: Give a short answer stating reported GI50 for C=CC(=O)Nc1cccc(N2C(=O)N(c3ccccc3)Cc3cnc(Nc4cn(C5CCNCC5)nc4Cl)nc32)c1 [Compound 132] .
Response: 0.96

Query: Give a short answer stating reported GI50 for Cc1c(Nc2ncc3c(n2)N(c2cccc(NC(=O)/C=C/CN(C)C)c2)C(=O)N(Cc2ccccc2)C3)cnn1C [Compound 11] .
Response: 1.15

Query: Give a short answer stating reported GI50 for CN(C)C/C=C/C(=O)Nc1cccc(N2C(=O)N(Cc3ccccc3)Cc3cnc(Nc4ccc(N5CCOCC5)nc4)nc32)c1 [Compound 54] .
Response: 0.224

Query: Give a short answer stating reported GI50 for Cc1csc(Nc2ncc3c(n2)N(c2cccc(NC(=O)/C=C/CN(C)C)c2)C(=O)N(Cc2ccccc2)C3)n1 [Compound 48] .
Response: 0.456
